Assay: Measurement of concentration of compound in rat plasma
Assay type: in vivo
Conditions: oral 10 mg/kg, after 4 hours
Structures can show the parent of a compound that is named as a salt.
Listed next: entries and their corresponding concentration at 4 h.
measured_parameter: concentration at 4 h

>>> result("CO[C@H]1Cc2ccccc2[C@H]1NC(=O)/C=C/c1c(-c2ccccc2)n(C)c2ncccc12 [Example 4, hydrochloride]")
"180 to 290 ng/mL"
>>> result("Cc1ccc2c(c1)c(C(=O)N1CCN(c3cnc(C(=O)NCCc4scnc4C)cn3)CC1)c(-c1ccccc1)n2C [Example 5, trihydrochloride]")
"87 to 160 ng/mL"
>>> result("CC1c2cc3c(cc2CCN1C(=O)/C=C/c1c(-c2ccccc2)n(C)c2ncccc12)OCO3 (stereo not drawn) [Example 28, hydrochloride]")
"320 to 460 ng/mL"
>>> result("Cc1ccc2c(c1)c(C(=O)N1CCN(c3ccccn3)CC1)c(-c1ccccc1)n2C [Compound A, hydrochloride, reference compound]")
"5 to 18 ng/mL"
>>> result("COc1cc2c(cc1OC)C(C)N(C(=O)/C=C/c1c(-c3ccccc3)n(C)c3ncccc13)CC2 (stereo not drawn) [Example 3, hydrochloride]")
"260 to 310 ng/mL"
>>> result("Cc1ccc2c(c1)c(C(=O)N1CCN(c3ccc(C(=O)N(C)C)cn3)CC1)c(-c1ccccc1)n2C.Cl [Example 120, hydrochloride]")
"2500 to 3100 ng/mL"
